target: Cyclin-dependent kinase 2 (Homo sapiens) (UniProt P24941); settings: at 1 µM;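 further: mean inhibition measured against the CDK2/cyclin E complex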
reportedEndpoint: inhibition

Requested field: inhibition. Item: O=C(O[C@H]1CN[C@H](C#Cc2cc3ncnc(Nc4ccc(OCc5cccc(F)c5)c(Cl)c4)c3s2)C1)N1CCOCC1
2.99%

Requested field: inhibition. Item: FC(F)(F)CNc1nccc(-c2cnn3ncccc23)n1
16.4%

Requested field: inhibition. Item: CCS(=O)(=O)c1ccc(OC)c(Nc2ncc(-c3cccc(F)c3)o2)c1
5.69%

Requested field: inhibition. Item: COc1ccc(-c2nn3ncccc3c2-c2ccnc(Nc3ccc(F)c(F)c3)n2)cc1
3.97%

Requested field: inhibition. Item: COc1cccc(Nc2nccc(-c3cnn4ncccc34)n2)c1
78.6%

Requested field: inhibition. Item: N#Cc1cccc(Nc2ncc(-c3ccccc3)o2)c1
40.1%

Requested field: inhibition. Item: OCCCNc1nccc(-c2c(-c3ccc(F)cc3)nn3cc(C(F)(F)F)ccc23)n1
3.87%

Requested field: inhibition. Item: CS(=O)(=O)Nc1ccc(-c2ccc3c(NC(=O)C4CC4)n[nH]c3c2)cc1
5.01%

Requested field: inhibition. Item: COc1ccc2ncn(-c3cc(O[C@H](C)c4ccccc4C(F)(F)F)c(C(N)=O)s3)c2c1
1.48%

Requested field: inhibition. Item: Cc1cc(O)cc(C)c1/C=C/c1cncc(C(=O)OC(C)(C)C)c1
6.74%

Requested field: inhibition. Item: Cn1c(-c2nonc2N)nc2cnccc21
11.6%

Requested field: inhibition. Item: NS(=O)(=O)c1cccc(N/C=C2\C(=O)Nc3ccccc32)c1
16%

====

target: Tyrosine-protein kinase JAK3 (Homo sapiens) (UniProt P52333); conditions: at 1 µM
Sequence (P52333 whole entry): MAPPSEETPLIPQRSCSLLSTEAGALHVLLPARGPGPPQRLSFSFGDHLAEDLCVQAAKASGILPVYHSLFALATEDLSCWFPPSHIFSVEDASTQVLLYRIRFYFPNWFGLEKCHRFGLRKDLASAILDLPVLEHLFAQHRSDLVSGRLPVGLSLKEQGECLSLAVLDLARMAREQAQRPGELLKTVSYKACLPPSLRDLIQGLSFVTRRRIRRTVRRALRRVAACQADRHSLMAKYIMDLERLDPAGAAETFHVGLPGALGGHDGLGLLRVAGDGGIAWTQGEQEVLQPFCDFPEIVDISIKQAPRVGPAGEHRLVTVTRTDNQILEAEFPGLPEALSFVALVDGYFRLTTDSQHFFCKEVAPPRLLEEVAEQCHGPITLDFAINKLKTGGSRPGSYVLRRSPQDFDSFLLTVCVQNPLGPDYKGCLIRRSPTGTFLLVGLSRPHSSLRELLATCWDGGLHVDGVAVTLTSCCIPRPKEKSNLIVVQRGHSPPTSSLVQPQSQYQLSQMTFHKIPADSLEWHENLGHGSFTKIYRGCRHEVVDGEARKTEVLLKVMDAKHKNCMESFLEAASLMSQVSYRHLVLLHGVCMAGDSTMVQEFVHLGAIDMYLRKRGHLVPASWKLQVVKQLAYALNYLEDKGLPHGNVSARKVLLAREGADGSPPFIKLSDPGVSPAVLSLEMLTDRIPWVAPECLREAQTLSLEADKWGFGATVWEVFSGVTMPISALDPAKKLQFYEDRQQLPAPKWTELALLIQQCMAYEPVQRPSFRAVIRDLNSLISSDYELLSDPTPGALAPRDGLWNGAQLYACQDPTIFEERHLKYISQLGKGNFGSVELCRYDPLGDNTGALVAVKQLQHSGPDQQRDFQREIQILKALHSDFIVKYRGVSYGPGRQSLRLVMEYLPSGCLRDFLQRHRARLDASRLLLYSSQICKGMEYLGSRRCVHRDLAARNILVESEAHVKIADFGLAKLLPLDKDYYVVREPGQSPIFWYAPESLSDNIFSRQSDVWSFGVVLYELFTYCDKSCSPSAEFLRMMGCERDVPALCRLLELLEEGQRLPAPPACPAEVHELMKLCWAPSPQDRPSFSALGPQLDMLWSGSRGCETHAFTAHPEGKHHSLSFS
Description: GSK_PKIS: JAK3 mean inhibition at 1 uM [Nanosyn]
Property: inhibition; scope: individual molecules
All answers are understood in %, so give the number only.

Take a look at these entries with their results.
1) O=C(O[C@H]1CN[C@H](C#Cc2cc3ncnc(Nc4ccc5c(cnn5Cc5ccccc5)c4)c3s2)C1)N1CCOCC1 | 1.24
2) COc1cc(N2CCN(C(C)C)CC2)ccc1Nc1nc(Nc2cccc(F)c2C(=O)O)c2cc[nH]c2n1 | 0.51
3) OCCCNc1nccc(-c2c(-c3ccc(F)cc3)nn3cc(C(F)(F)F)ccc23)n1 | 1.33
4) CC(C)c1ccc(-c2cc(-c3c[nH]nc3-c3ccccn3)ccn2)cc1 | 0.8

Requested field: inhibition. Item: COc1ccccc1-c1cc(/C=C2\C(=O)Nc3ncc(Br)cc32)cc(Br)c1O
5.39

Requested field: inhibition. Item: COC(=O)Nc1nc2ccc(Oc3ccc(NC(=O)Nc4cc(C(F)(F)F)ccc4F)cc3)cc2s1
0.75

Requested field: inhibition. Item: O=C1Nc2ccccc2/C1=C1\CCc2cc(O)ccc21
13.3

Requested field: inhibition. Item: Cc1cc(O)cc(C)c1/C=C/c1cncc(C(N)=O)c1
1.29

Requested field: inhibition. Item: N#Cc1cccc(Nc2ncc(-c3ccccc3)o2)c1
-0.94

Requested field: inhibition. Item: FC(F)(F)CNc1nccc(-c2cnn3ncccc23)n1
-1.63

====

target: Proto-oncogene tyrosine-protein kinase Src (Homo sapiens) (UniProt P12931); details: at 0.1 µM
Sequence (P12931 2-536 limits assumed): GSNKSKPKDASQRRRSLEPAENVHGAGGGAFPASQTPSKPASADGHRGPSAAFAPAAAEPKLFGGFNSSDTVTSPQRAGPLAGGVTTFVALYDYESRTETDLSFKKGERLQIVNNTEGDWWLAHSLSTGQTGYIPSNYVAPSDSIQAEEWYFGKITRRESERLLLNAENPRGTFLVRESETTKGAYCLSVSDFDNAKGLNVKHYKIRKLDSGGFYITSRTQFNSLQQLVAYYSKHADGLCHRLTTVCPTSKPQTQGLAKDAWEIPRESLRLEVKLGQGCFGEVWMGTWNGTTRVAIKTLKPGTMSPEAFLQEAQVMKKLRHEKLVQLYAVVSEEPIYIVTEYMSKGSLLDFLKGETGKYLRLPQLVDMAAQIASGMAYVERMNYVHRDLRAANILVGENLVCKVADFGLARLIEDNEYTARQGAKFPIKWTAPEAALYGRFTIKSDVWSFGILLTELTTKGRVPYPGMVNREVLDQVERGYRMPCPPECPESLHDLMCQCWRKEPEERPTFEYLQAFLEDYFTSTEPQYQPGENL
reportedEndpoint: inhibition (%)
All answers are understood in %, so give the number only.

Take a look at these entries with their results.
1) COC(=O)Nc1nc2ccc(Oc3ccc(NC(=O)Nc4cc(C(F)(F)F)ccc4F)cc3)cc2s1 | 0.46
2) c1cnn2ncc(-c3ccnc(NCCCN4CCOCC4)n3)c2c1 | 2.26
3) CNC(=O)c1sc(-n2cnc3cc(OC)c(OC)cc32)cc1OCc1ccccc1C(F)(F)F | 6.71

Param readout = inhibition; param system = Proto-oncogene tyrosine-protein kinase Src (Homo sapiens) (UniProt P12931); param query = CNC(=O)c1cncc(/C=C/c2ccccc2C)c1 ; response: value
8.47

Param readout = inhibition; param system = Proto-oncogene tyrosine-protein kinase Src (Homo sapiens) (UniProt P12931); param query = Cc1c2ccc(N(C)c3ccnc(Nc4cccc(S(N)(=O)=O)c4)n3)cc2nn1C ; response: value
40.5

Param readout = inhibition; param system = Proto-oncogene tyrosine-protein kinase Src (Homo sapiens) (UniProt P12931); param query = NS(=O)(=O)c1ccc(N/N=C2\C(=O)Nc3cccc(CCc4ccncc4)c32)cc1 ; response: value
3.83

Param readout = inhibition; param system = Proto-oncogene tyrosine-protein kinase Src (Homo sapiens) (UniProt P12931); param query = CS(=O)(=O)CCNCc1ccc(-c2ccc3ncnc(Nc4ccc(OCc5cccc(C(F)(F)F)c5)cc4)c3c2)o1 ; response: value
9.03

Param readout = inhibition; param system = Proto-oncogene tyrosine-protein kinase Src (Homo sapiens) (UniProt P12931); param query = CN1CCN(Cc2ccc(-c3cc4ncnc(Nc5ccc(OCc6cccc(F)c6)c(Cl)c5)c4s3)o2)CC1 ; response: value
4.74

Param readout = inhibition; param system = Proto-oncogene tyrosine-protein kinase Src (Homo sapiens) (UniProt P12931); param query = COc1ccc2ncn(-c3cc(O[C@H](C)c4ccccc4C(F)(F)F)c(C(N)=O)s3)c2c1 ; response: value;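 further: values are averaged inhibition of Src, tested against the GSK PKIS kinase inhibitor set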
-2.12

====

target: Serine/threonine-protein kinase MARK2 (Homo sapiens) (UniProt Q7KZI7); conditions: at 1 µM
Sequence (Q7KZI7 whole entry): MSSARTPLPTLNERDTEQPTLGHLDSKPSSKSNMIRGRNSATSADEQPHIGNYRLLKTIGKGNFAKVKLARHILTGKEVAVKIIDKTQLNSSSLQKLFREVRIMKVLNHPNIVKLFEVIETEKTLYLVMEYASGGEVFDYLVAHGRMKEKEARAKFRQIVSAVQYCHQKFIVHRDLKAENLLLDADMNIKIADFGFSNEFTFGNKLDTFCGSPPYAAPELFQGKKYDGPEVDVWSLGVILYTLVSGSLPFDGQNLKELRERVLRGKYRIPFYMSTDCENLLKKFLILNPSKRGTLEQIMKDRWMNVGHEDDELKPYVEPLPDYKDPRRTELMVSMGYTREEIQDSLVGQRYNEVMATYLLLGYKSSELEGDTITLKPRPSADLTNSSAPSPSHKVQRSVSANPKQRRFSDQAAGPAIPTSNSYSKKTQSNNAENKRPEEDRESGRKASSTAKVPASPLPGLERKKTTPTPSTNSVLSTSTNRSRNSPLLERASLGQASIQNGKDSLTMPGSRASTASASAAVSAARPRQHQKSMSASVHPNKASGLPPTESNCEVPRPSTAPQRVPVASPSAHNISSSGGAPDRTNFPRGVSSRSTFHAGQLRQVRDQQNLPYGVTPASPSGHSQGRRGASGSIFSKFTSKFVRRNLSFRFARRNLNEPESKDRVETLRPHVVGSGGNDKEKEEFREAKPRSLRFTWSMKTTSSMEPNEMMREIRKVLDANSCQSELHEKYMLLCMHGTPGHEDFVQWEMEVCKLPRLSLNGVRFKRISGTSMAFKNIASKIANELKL
Description: GSK_PKIS: PAR-1Balpha mean inhibition at 1 uM [Nanosyn]
reportedEndpoint: inhibition (%)
All answers are understood in %, so give the number only.

Take a look at these entries with their results.
1) CS(=O)(=O)Nc1ccc(-c2cc(-c3ccccc3)cc(C(N)=O)c2N)cc1 | 4.64
2) NS(=O)(=O)c1ccc(N/N=C2\C(=O)Nc3cccc(CCc4ccncc4)c32)cc1 | 4.73

Requested field: inhibition. Item: CN(c1ccc(NC(=O)NCCN2CCOCC2)cc1)c1ccnc(Nc2ccc(CS(C)(=O)=O)cc2)n1
2.47

Requested field: inhibition. Item: CCn1c(-c2nonc2N)nc2cncc(C(=O)NCCNC)c21
14

Requested field: inhibition. Item: COc1cccc(-n2ncc3c(N/N=C/c4ccc(C(=O)NCCN(C)C)cc4)ncnc32)c1
11.9

====

biological target: Casein kinase I isoform gamma-3 (Homo sapiens); conditions: at 1 µM
Property: inhibition; scope: individual molecules
All answers are understood in %, so give the number only.

1. N#Cc1cccc(Nc2ncc(-c3ccccc3)o2)c1 | 4.11

Param readout = inhibition; param system = Casein kinase I isoform gamma-3 (Homo sapiens); param query = CNC(=O)c1cncc(/C=C/c2ccccc2C)c1 ; response: value
3.55

Param readout = inhibition; param system = Casein kinase I isoform gamma-3 (Homo sapiens); param query = c1ccc(-c2n[nH]cc2-c2ccnc(-c3ccc(OCCn4ccnc4)cc3)c2)nc1 ; response: value
5.22

Param readout = inhibition; param system = Casein kinase I isoform gamma-3 (Homo sapiens); param query = COc1cccc(Nc2nccc(-c3cnn4ncccc34)n2)c1 ; response: value
38.6

Param readout = inhibition; param system = Casein kinase I isoform gamma-3 (Homo sapiens); param query = CCS(=O)(=O)c1ccc(OC)c(Nc2ncc(-c3cccc(C(C)=O)c3)o2)c1 ; response: value
1.37

Param readout = inhibition; param system = Casein kinase I isoform gamma-3 (Homo sapiens); param query = COc1cc(Nc2ncc(-c3ccccc3)o2)cc(OC)c1 ; response: value
3.43

Param readout = inhibition; param system = Casein kinase I isoform gamma-3 (Homo sapiens); param query = COc1c(C(N)=O)cc(-c2ccc(Cl)cc2)cc1-c1ccc(S(N)(=O)=O)cc1 ; response: value
5.9

Param readout = inhibition; param system = Casein kinase I isoform gamma-3 (Homo sapiens); param query = N#Cc1ccc2c(-c3ccnc(NC4CC4)n3)c(-c3ccc(F)cc3)nn2c1 ; response: value;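 further: mean inhibition of CK1-g3, GSK PKIS screen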
5.03

====

molecular target: Sphingosine kinase 1 (Homo sapiens); conditions: at 1 µM
Property: inhibition; scope: individual compounds
A complete answer gives the number and then names the unit.

1) CCOc1ccc2c(-c3ccnc(Nc4cc(OC)cc(C(F)(F)F)c4)n3)cnn2n1 | 1.71%
2) COC(=O)Nc1nc2ccc(Oc3ccc(NC(=O)Nc4cc(C(F)(F)F)ccc4F)cc3)cc2s1 | -3.33%
3) N#Cc1cccc(Nc2ncc(-c3ccccc3)o2)c1 | -2.86%
4) CCN1CCC(C(=O)Nc2n[nH]c3nnc(-c4cccc(F)c4F)cc23)CC1 | 4.91%

Now for a further compound.
Param readout = inhibition; param system = Sphingosine kinase 1 (Homo sapiens); param query = COc1cc(N2CCN(C(C)C)CC2)ccc1Nc1nc(Nc2cccc3ncccc23)c2cc[nH]c2n1 ; response: value;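 further: mean SPHK1 inhibition value reported from the GSK PKIS kinase panel screen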
-2%

====

Molecular target: Phosphorylase b kinase gamma catalytic chain, liver/testis isoform (Homo sapiens) (UniProt P15735);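 further: reported value is the mean inhibition of PHKG2 from the GSK_PKIS screening set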
Sequence (whole entry): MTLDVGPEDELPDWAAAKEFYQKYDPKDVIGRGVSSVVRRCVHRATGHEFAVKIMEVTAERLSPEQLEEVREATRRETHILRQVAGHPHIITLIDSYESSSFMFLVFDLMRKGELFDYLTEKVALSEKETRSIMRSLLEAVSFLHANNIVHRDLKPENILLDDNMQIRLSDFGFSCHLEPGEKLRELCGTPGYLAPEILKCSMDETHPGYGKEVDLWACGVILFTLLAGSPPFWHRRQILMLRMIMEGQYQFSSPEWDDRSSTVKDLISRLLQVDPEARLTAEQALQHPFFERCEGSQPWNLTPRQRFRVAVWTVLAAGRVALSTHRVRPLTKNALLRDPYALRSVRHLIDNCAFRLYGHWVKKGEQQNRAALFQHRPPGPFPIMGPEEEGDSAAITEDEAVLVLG
Conditions: at 1 µM
reportedEndpoint: inhibition (%)
All answers are understood in %, so give the number only.

Take a look at these entries with their results.
1) COC(=O)Nc1nc2ccc(Oc3ccc(NC(=O)Nc4cc(C(F)(F)F)ccc4F)cc3)cc2s1 | -1.17
2) CS(=O)(=O)Nc1ccc(-c2ccc3c(NC(=O)C4CC4)n[nH]c3c2)cc1 | -0.4
3) Cc1cc(O)cc(C)c1/C=C/c1cncc(C(=O)OC(C)(C)C)c1 | 1.25
4) O=C(Nc1n[nH]c2nnc(-c3cccnc3)cc12)C1CC1 | -1.9
5) N#Cc1ccc2c(-c3ccnc(NC4CC4)n3)c(-c3ccc(F)cc3)nn2c1 | 0.44

Requested field: inhibition. Item: FC(F)(F)CNc1nccc(-c2cnn3ncccc23)n1
4.36

Requested field: inhibition. Item: CNC(=O)c1ncccc1Nc1nc(Nc2cc3c(cc2OC)CCCN3C(=O)CN(C)C)nc2[nH]ccc12
3.8

Requested field: inhibition. Item: COc1ccc(-c2nn3ncccc3c2-c2ccnc(Nc3ccc(F)c(F)c3)n2)cc1
9.5

Requested field: inhibition. Item: O=C(O[C@H]1CN[C@H](C#Cc2cc3ncnc(Nc4ccc5c(ccn5Cc5cc(F)ccc5F)c4)c3s2)C1)N1CCOCC1
2.49

Requested field: inhibition. Item: CN(C)CCNC(=O)Nc1ccc(N(C)c2ccnc(Nc3ccc(CS(C)(=O)=O)cc3)n2)cc1
1.59

Requested field: inhibition. Item: CS(=O)(=O)CCNCc1ccc(-c2ccc3ncnc(Nc4ccc(OCc5ccccc5)cc4)c3c2)o1
4.2

Requested field: inhibition. Item: c1ccc(-c2n[nH]cc2-c2ccnc(-c3ccc(OCCn4ccnc4)cc3)c2)nc1
3.4

Requested field: inhibition. Item: O=C1Nc2ccccc2/C1=C1\CCc2cc(O)ccc21
9.59

Requested field: inhibition. Item: NC(=O)c1ccc2c(-c3ccnc(NCCCO)n3)c(-c3ccc(F)cc3)nn2c1
2.16
